# system tested: recombinant COX-2 (human) (Homo sapiens)
# Sequence (P35354 18-604): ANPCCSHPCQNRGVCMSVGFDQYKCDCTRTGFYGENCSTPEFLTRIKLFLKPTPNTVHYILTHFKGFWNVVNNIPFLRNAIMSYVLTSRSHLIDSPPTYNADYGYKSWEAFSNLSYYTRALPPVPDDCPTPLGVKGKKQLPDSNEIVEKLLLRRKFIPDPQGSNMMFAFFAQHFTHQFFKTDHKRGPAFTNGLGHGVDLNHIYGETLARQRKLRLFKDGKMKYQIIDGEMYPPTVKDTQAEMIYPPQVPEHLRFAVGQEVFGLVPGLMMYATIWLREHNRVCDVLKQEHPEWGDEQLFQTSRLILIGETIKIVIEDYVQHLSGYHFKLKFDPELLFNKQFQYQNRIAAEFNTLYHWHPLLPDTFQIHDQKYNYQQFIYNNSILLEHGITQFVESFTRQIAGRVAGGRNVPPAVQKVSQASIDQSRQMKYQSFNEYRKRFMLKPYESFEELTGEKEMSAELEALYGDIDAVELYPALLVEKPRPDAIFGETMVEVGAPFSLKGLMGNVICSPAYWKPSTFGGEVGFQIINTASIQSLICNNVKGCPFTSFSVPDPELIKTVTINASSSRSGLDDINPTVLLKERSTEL
# test details: COX-2 inhibition, ELISA kit (Cayman Chemical)
# measurement context: human recombinant COX-2, ELISA
assay metric: IC50 (nM)

{"columns": ["compound", "scale unit", "measured value"],
 "data": [
  ["O.O.O.O.O=C(Cc1ccccc1Nc1c(Cl)cccc1Cl)NN=Cc1c(O)ccc2ccccc12.O=C(Cc1ccccc1Nc1c(Cl)cccc1Cl)NN=Cc1c(O)ccc2ccccc12.O=[N+]([O-])[O-].O=[N+]([O-])[O-].O=[N+]([O-])[O-].[Gd+3] [Gd(III)-HDN, [Gd(HDN)2(NO3)2]NO3.4H2O]", "nM", 950]
]}

(1) O=C(Cc1ccccc1Nc1c(Cl)cccc1Cl)NN=Cc1c([O-])ccc2ccccc12.O=C(Cc1ccccc1Nc1c(Cl)cccc1Cl)NN=Cc1c([O-])ccc2ccccc12.[Co+2] [Co(II)-HDN, [Co(DN)2]]
(2) O=C(Cc1ccccc1Nc1c(Cl)cccc1Cl)N/N=C/c1c(O)ccc2ccccc12 [Ligand [HDN]]
stdin: Task for the reader: decide whether 1 or 2 has the larger IC50. Identify your selection by its label.
stdout: 1
